# Test system: MDA−MB−231 cells
# method: Cellular uptake of Pt by ICP-MS
# Assay type: cell-based
# test-settings: MDA−MB−231, 3 µM, 3 h
# Procedure: A final concentration of 10^6 cells/well of MDA−MB−231 and HT29 cells were seeded in 6-well plates and incubated overnight to adhere. The cells were then treated with a final concentration of 3 µM of either Pt^II or Pt^IV complexes. After 0, 0.5, 1, 3, 6, 12, 24 or 30 h, the medium was removed, and the cells were washed three times with cold PBS and allowed to dry. […] The results represent an average of three different experiments run in triplicate (±SEM) and expressed as nmol/10^6 cells or µM/cell. […]
Rule: measured Intracellular Concentration below 0.8 nmol/10^6 cells gets 1.0; anything equal to or greater than 0.8 nmol/10^6 cells gets 0.0.

Please indicate whether the reported Intracellular Concentration of "Cc1c(C)c2cccnc2c2ncccc12.N[C@H]1CCCC[C@@H]1N.O=[N+]([O-])[O-].O=[N+]([O-])[O-].[Pt+2]" is strictly below 0.8 nmol/10^6 cells.
0.0

Field entry: "Cc1cc2cccnc2c2ncccc12.N[C@H]1CCCC[C@@H]1N.O=[N+]([O-])[O-].O=[N+]([O-])[O-].[OH][Pt+2][OH]"
1.0

Field entry: N.N.[Cl][Pt][Cl] [Cisplatin, cisplatin]
1.0

Field entry: "Cc1cc2cccnc2c2ncccc12.N[C@H]1CCCC[C@@H]1N.O=[N+]([O-])[O-].O=[N+]([O-])[O-].[Pt+2]"
0.0

Field entry: "N[C@H]1CCCC[C@@H]1N.O=[N+]([O-])[O-].O=[N+]([O-])[O-].[OH-].[OH-].[Pt+4].c1cnc2c(c1)ccc1cccnc12"
1.0

Field entry: "Cc1c(C)c2cccnc2c2ncccc12.N[C@H]1CCCC[C@@H]1N.O=[N+]([O-])[O-].O=[N+]([O-])[O-].[OH][Pt+2][OH]"
1.0
